experiment: Phase 1 study, SAD cohorts: plasma pharmacokinetics; type: in vivo, human; settings: both sexes, human, plasma, oral, healthy subjects, postdose
value.kind: Tmax

### Prompt Identify measured Tmax associated with N#Cc1cccc(C#N)c1-c1c(-c2cccc(-c3ccc(C(=O)NCC(=O)O)cc3Cl)c2)n(S(=O)(=O)c2ccc(C(F)F)cc2)c2ccc(F)cc12 [Compound 21/3]
### Response 3 to 4 h

---

What EC50 was measured for each of the following?
target: GST-LXRβ ligand-binding domain (Homo sapiens, UniProt P55055); construct: amino acids 156-461; NP009052; test: TR-FRETβ activity assay (NCoA3 coactivator peptide recruitment); conditions: 1 μM 24(S)-25-epoxycholesterol prestimulation
Sequence (P55055 156-460 limits assumed): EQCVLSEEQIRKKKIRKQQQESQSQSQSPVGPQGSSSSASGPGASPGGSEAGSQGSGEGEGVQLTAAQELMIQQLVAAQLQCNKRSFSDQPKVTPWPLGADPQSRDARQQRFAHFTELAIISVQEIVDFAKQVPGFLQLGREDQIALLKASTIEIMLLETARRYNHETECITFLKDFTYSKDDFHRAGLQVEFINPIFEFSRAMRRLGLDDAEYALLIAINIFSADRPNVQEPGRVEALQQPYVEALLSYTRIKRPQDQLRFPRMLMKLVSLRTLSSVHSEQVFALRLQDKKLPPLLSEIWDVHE

### Prompt State measured EC50 of the molecule `Cc1ccc(S(=O)(=O)n2c(-c3cccc(-c4cnc(C(=O)O)cc4C)c3)c(-c3ccsc3C#N)c3cc(F)ccc32)cc1` with GST-LXRβ ligand-binding domain (Homo sapiens, UniProt P55055).
### Response 1000 to 10000 nM

### Prompt State measured EC50 of the molecule `COc1ccc2c(c1)c(-c1ccsc1C#N)c(-c1cccs1)n2S(=O)(=O)c1ccc(Cl)cc1` with GST-LXRβ ligand-binding domain (Homo sapiens, UniProt P55055).
### Response > 10000 nM

### Prompt State measured EC50 of the molecule `Cc1ccc(S(=O)(=O)n2c(-c3cccc(-c4ccc(CO)c(S(=O)(=O)CC(=O)O)c4)c3)c(-c3ccsc3C#N)c3ccccc32)cc1` with GST-LXRβ ligand-binding domain (Homo sapiens, UniProt P55055).
### Response 100 to 1000 nM

### Prompt State measured EC50 of the molecule `COc1ccc(S(=O)(=O)n2c(-c3cccs3)c(-c3ccsc3C#N)c3ccccc32)cc1` with GST-LXRβ ligand-binding domain (Homo sapiens, UniProt P55055).
### Response 100 to 1000 nM

### Prompt State measured EC50 of the molecule `Cc1ccc(S(=O)(=O)n2c(-c3cccc(-c4cc(C)c(C(=O)O)cc4Cl)c3)c(-c3ccsc3C#N)c3cc(F)ccc32)cc1` with GST-LXRβ ligand-binding domain (Homo sapiens, UniProt P55055).
### Response 100 to 1000 nM

### Prompt State measured EC50 of the molecule `N#Cc1sccc1-c1c(-c2cccc(N3CC(C(=O)O)C3)c2)n(S(=O)(=O)c2ccc3ccccc3c2)c2ccc(F)cc12` with GST-LXRβ ligand-binding domain (Homo sapiens, UniProt P55055).
### Response 1000 to 10000 nM

### Prompt State measured EC50 of the molecule N#Cc1sccc1-c1c(-c2cccc(C3CC3C(=O)O)c2)n(S(=O)(=O)C2CC2)c2ccccc12 (stereo not shown) with GST-LXRβ ligand-binding domain (Homo sapiens, UniProt P55055).
### Response 1000 to 10000 nM

---

What pEC50 was measured for each of the following?
molecular target: GST-LXRβ ligand-binding domain (Homo sapiens); construct: amino acids 156-461; NP009052; assay: TR-FRETβ activity assay (NCoA3 coactivator peptide recruitment); conditions: 1 μM 24(S)-25-epoxycholesterol prestimulation
pEC50: −log10 of the molar value.

### Prompt Identify measured pEC50 associated with `NC(=O)c1sccc1-c1c(-c2cccs2)n(S(=O)(=O)c2ccc(Cl)cc2)c2ccccc12`
### Response 5.00 to 6.00

### Prompt Identify measured pEC50 associated with `O=C(O)c1sccc1-c1c(-c2cccs2)n(S(=O)(=O)c2ccc(Cl)cc2)c2ccccc12`
### Response < 5.00

### Prompt Identify measured pEC50 associated with `O=C(O)c1ccc(-c2cccc(-c3c(-c4ncccc4C(F)(F)F)c4cc(F)ccc4n3S(=O)(=O)c3ccc(C(F)F)cc3)c2)c(Cl)c1`
### Response > 7.00

### Prompt Identify measured pEC50 associated with `Cc1ccc(S(=O)(=O)n2c(-c3cccc(-c4ccc(C(=O)O)c(F)c4Cl)c3)c(-c3ccsc3C#N)c3cc(F)ccc32)cc1`
### Response 6.00 to 7.00

### Prompt Identify measured pEC50 associated with `N#Cc1sccc1-c1c(-c2cccc(CCCC(=O)O)c2)n(S(=O)(=O)c2ccc(Cl)cc2)c2ccccc12`
### Response 5.00 to 6.00

### Prompt Identify measured pEC50 associated with `Cc1ccc(S(=O)(=O)n2c(-c3cc(N4CC(C(=O)O)C4)ccc3Cl)c(-c3ccsc3C#N)c3cc(F)ccc32)cc1`
### Response 5.00 to 6.00

### Prompt Identify measured pEC50 associated with `N#Cc1sccc1-c1c(-c2cccc(-c3ccc(C(=O)O)cc3)c2)n(S(=O)(=O)c2ccc3c(c2)CCC3)c2ccc(F)cc12`
### Response 6.00 to 7.00

### Prompt Identify measured pEC50 associated with `N#Cc1sccc1-c1c(-c2cccs2)n(S(=O)(=O)c2ccc(Cl)cc2)c2cc(O)ccc12`
### Response 5.00 to 6.00

### Prompt Identify measured pEC50 associated with N#Cc1sccc1-c1c(-c2cc(Cl)cc(C3CC3C(=O)O)c2)n(S(=O)(=O)c2ccc(Cl)cc2)c2ccccc12 (centres unmarked)
### Response 5.00 to 6.00

### Prompt Identify measured pEC50 associated with `Cc1ccc(S(=O)(=O)n2c(-c3cccc(-c4ccc(-c5nnn[nH]5)cc4Cl)c3)c(-c3ccsc3C#N)c3cc(F)ccc32)cc1`
### Response 6.00 to 7.00

### Prompt Identify measured pEC50 associated with `COC(=O)c1ccc(-c2cccc(-c3c(-c4c(C)cccc4C#N)c4cc(F)ccc4n3S(=O)(=O)c3ccc(C(F)F)cc3)c2)c(Cl)c1`
### Response 6.00 to 7.00

### Prompt Identify measured pEC50 associated with `N#Cc1sccc1-c1c(-c2ccccc2)n(S(=O)(=O)c2ccc(Cl)cc2)c2ccccc12`
### Response 6.00 to 7.00

### Prompt Identify measured pEC50 associated with `COc1cccnc1-c1c(-c2cccc(-c3ccc(C(=O)O)cc3Cl)c2)n(S(=O)(=O)c2ccc(C(F)F)cc2)c2ccc(F)cc12`
### Response 6.00 to 7.00

### Prompt Identify measured pEC50 associated with `O=C(O)c1ccc(-c2cccc(-c3c(-c4ccsc4C(F)F)c4cc(F)ccc4n3S(=O)(=O)c3ccc(Cl)cc3)c2)c(Cl)c1`
### Response > 7.00

---

biological target: LXRβ (Homo sapiens, UniProt P55055); experiment: LXR Gal4 reporter transient transfection assay (mammalian two-hybrid, HEK293), LXRβ; type: cell-based; set-up: LXRβ (amino acids 156-461); expressed in transfected cells; host or cells: HEK293; details: full length (FL) LXRβ, HEK293; read-out: FL-M2H Gal4β
Sequence (P55055 whole entry, the tested form may be a part): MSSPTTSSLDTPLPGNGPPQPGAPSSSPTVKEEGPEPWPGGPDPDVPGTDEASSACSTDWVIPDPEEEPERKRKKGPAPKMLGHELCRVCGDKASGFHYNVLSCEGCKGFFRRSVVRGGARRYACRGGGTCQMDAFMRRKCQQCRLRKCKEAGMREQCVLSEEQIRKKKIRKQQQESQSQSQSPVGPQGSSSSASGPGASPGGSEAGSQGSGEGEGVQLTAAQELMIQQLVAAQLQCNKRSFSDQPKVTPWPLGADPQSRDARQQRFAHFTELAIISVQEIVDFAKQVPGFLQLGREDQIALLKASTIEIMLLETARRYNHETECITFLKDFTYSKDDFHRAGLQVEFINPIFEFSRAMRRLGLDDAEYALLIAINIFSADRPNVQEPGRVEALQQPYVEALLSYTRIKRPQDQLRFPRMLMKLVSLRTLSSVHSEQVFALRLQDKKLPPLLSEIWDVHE
value.kind: EC50

### Prompt Identify measured EC50 associated with N#Cc1ccc(S(=O)(=O)n2c(-c3cccc(-c4ccc(C(=O)O)cc4Cl)c3)c(-c3ccsc3C#N)c3cc(F)ccc32)cc1 [11/20]
### Response < 100 nM

### Prompt Identify measured EC50 associated with Cc1ccc(S(=O)(=O)n2c(-c3cccc(-c4ccc(C(C)(C)N)cc4Cl)c3)c(-c3ccsc3C#N)c3cc(F)ccc32)cc1 [2/2]
### Response 100 to 1000 nM

### Prompt Identify measured EC50 associated with COc1cc(C(=O)O)ccc1-c1cccc(-c2c(-c3ccccc3C#N)c3cc(F)ccc3n2S(=O)(=O)c2ccc(C(F)F)cc2)c1 [11/29]
### Response < 100 nM

### Prompt Identify measured EC50 associated with N#Cc1cccc(C#N)c1-c1c(-c2cccc(-c3ccc(C(=O)O)cc3Cl)c2)n(S(=O)(=O)C2CC3CCC2C3)c2ccc(F)cc12 (stereo not shown) [11/66]
### Response < 100 nM

---

experiment: Short term HFD mouse model: plasma and liver exposure; type: in vivo; settings: HFD mice, three oral doses of 20 mg/kg over two days, 4 h after final dose
value.kind: liver/plasma ratio 4 h

Here's what some known entries look like.
{"compound": "O=C(O)c1ccc(-c2cccc(-c3c(-c4ccccc4C4COC4)c4cc(F)ccc4n3S(=O)(=O)c3ccc(C(F)F)cc3)c2)c(Cl)c1 [3/59]", "liver/plasma ratio 4 h": "B (5 to ≤30)"}
{"compound": "COc1c(C(=O)O)ccc(-c2cccc(-c3c(-c4ccccc4C#N)c4cc(F)ccc4n3S(=O)(=O)c3ccc(C(F)F)cc3)c2)c1Cl [11/27]", "liver/plasma ratio 4 h": "C (30 to ≤100)"}
{"compound": "Cc1ccc(S(=O)(=O)n2c(-c3cccc(-c4ccc(C(=O)O)cc4)c3)c(-c3ccsc3C#N)c3cc(F)ccc32)cc1 [5/3]", "liver/plasma ratio 4 h": "B (5 to ≤30)"}
{"compound": "Cc1ccc(S(=O)(=O)n2c(-c3cccc(C45CCC(C(=O)O)(CC4)CC5)c3)c(-c3ccsc3C#N)c3cc(F)ccc32)cc1 [3/64]", "liver/plasma ratio 4 h": "D (>100)"}
{"compound": "N#Cc1nccnc1-c1c(-c2cccc(-c3cc(F)c(C(=O)O)cc3Cl)c2)n(S(=O)(=O)c2ccc(C(F)F)cc2)c2ccc(F)cc12 [11/11]", "liver/plasma ratio 4 h": "D (>100)"}
{"compound": "N#Cc1sccc1-c1c(-c2cccc(-c3ccc(C(=O)O)cc3Cl)c2)n(S(=O)(=O)c2ccc(C(F)F)cc2)c2ccc(F)cc12 [11/17]", "liver/plasma ratio 4 h": "C (30 to ≤100)"}
{"compound": "O=C(O)c1ccc(-c2cccc(-c3c(-c4c(Cl)cccc4Cl)c4cc(F)ccc4n3S(=O)(=O)c3ccc(C(F)F)cc3)c2)c(Cl)c1 [11/13]", "liver/plasma ratio 4 h": "A (<5)"}

Now for another entry.
### Prompt Identify measured liver/plasma ratio 4 h associated with Cc1ccc(S(=O)(=O)n2c(-c3cccc(-c4ccc(C(=O)O)cc4)c3)c(-c3ccsc3C#N)c3cc(F)ccc32)cc1C [23/2]
### Response A (<5)
